Molecular target: Rat recombinant PDE10a (rPDE10a) (Rattus norvegicus (Rat), UniProt Q9QYJ6)
Sequence (Q9QYJ6 whole entry): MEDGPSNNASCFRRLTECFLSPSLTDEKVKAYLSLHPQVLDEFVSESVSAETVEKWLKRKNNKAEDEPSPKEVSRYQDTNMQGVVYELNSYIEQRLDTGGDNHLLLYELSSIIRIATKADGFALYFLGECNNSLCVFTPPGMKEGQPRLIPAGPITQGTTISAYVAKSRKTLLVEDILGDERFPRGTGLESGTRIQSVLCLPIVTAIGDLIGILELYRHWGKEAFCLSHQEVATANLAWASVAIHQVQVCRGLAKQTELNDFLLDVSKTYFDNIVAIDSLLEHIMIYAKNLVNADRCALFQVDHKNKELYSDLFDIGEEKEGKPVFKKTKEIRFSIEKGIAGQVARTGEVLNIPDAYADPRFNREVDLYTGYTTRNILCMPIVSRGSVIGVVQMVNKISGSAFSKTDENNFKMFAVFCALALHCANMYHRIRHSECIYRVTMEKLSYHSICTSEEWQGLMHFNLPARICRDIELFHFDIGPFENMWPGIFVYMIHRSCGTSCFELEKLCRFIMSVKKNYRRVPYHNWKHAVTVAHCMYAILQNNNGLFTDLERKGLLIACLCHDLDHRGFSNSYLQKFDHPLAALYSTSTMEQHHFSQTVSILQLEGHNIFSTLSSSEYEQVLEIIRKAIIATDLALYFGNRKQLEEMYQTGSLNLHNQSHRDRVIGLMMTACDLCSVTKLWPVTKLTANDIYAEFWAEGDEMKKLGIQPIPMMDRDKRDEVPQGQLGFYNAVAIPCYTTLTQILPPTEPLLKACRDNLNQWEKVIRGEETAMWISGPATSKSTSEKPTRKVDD
Assay: In vitro assay PDE10a: rat recombinant PDE10a SPA with 3H-cAMP substrate, IC50
Conditions: 60 nM cAMP, read-out: rPDE10a2 IC50
Structures can show the parent of a compound that is named as a salt.
measured-parameter: pIC50
Expect pIC50 as a plain number equal to -log10 of the molar concentration.

I have this compound here, `CS(=O)(=O)NC(=O)Nc1ccc(-c2c(CCc3ccc4ccccc4n3)nc3c(N4CCOCC4)ccnn23)cc1` , and I need its recorded pIC50.
8.40

I have this compound here, `C(=C\c1nc2c(N3CCOCC3)ccnn2c1N1CCCCC1)/c1ccc2ccccc2n1` , and I need its recorded pIC50.
7.55

I have this compound here, `O=C(O)CCc1ccc(-c2c(/C=C/c3ccc4ccccc4n3)nc3c(N4CCOCC4)ccnn23)cn1` , and I need its recorded pIC50.
8.70

I have this compound here, O=c1ncn(-c2ccc(-c3c(/C=C/c4ccc5ccccc5n4)nc4c(N5CCOCC5)ccnn34)cn2)[nH]1 [Cpd 56, trifluoroacetic acid salt] , and I need its recorded pIC50.
8.15

I have this compound here, `CS(=O)(=O)NC(=O)c1ccc(-c2c(/C=C/c3ccc4ccccc4n3)nc3c(N4CCOCC4)ccnn23)cc1` , and I need its recorded pIC50.
8.52

I have this compound here, `NS(=O)(=O)c1ccc(-c2c(CCc3ccc4ccccc4n3)nc3c(N4CCOCC4)ccnn23)cc1` , and I need its recorded pIC50.
8.40

I have this compound here, C(=C\c1nc2c(N3CCOCC3)ccnn2c1-c1ccc(N2CCNCC2)nc1)/c1ccc2ccccc2n1 [Cpd 177, trifluoroacetic acid salt] , and I need its recorded pIC50.
8.00

I have this compound here, `O=C(O)c1ccc(-c2c(C3CN(c4ccc5ccccc5n4)C3)nc3c(N4CCOCC4)ccnn23)cc1` , and I need its recorded pIC50.
8.70

I have this compound here, `O=C(O)c1ccc(-c2c(CCc3ccc4ccccc4n3)nc3c(N4CCOCC4)ccnn23)cc1O` , and I need its recorded pIC50.
8.70

I have this compound here, CC(C)[C@H](NC(=O)c1ccc(-c2c(/C=C/c3ccc4ccccc4n3)nc3c(N4CCOCC4)ccnn23)cc1)C(=O)O [Cpd 73, trifluoroacetic acid salt] , and I need its recorded pIC50.
8.15

I have this compound here, `O=C(O)c1ccc(-c2c(C#Cc3ccccn3)nc3c(N4CCOCC4)ccnn23)cc1` , and I need its recorded pIC50.
8.70

I have this compound here, O=C(O)CNc1ccc(-c2c(C#Cc3ccc4ccccc4n3)nc3c(N4CCOCC4)ccnn23)cn1 [Cpd 24, trifluoroacetic acid salt] , and I need its recorded pIC50.
9.00

I have this compound here, `CC(=O)NS(=O)(=O)c1ccc(-c2c(CCc3ccc4ccccc4n3)nc3c(N4CCOCC4)ccnn23)cc1` , and I need its recorded pIC50.
9.00

I have this compound here, O=C(O)c1cccc2nc(/C=C/c3nc4c(N5CCOCC5)ccnn4c3-c3cccnc3)ccc12 [Cpd 137, sodium salt] , and I need its recorded pIC50.
9.00

I have this compound here, `Oc1c(F)cc(-c2c(CCc3ccc4ccccc4n3)nc3c(N4CCOCC4)ccnn23)cc1F` , and I need its recorded pIC50.
8.40

I have this compound here, Oc1ncn(-c2ccc(-c3c(/C=C/c4ccc5ccccc5n4)nc4c(N5CCOCC5)ccnn34)cc2)n1 [Cpd 54, trifluoroacetic acid salt] , and I need its recorded pIC50.
7.96

I have this compound here, O=C1NC(=O)C(c2ccc(-c3c(CCc4ccc5ccccc5n4)nc4c(N5CCOCC5)ccnn34)cc2)O1 (centres unmarked) , and I need its recorded pIC50.
8.15

I have this compound here, `Cn1nc(-c2ccc(-c3c(/C=C/c4ccc5ccccc5n4)nc4c(N5CCOCC5)ccnn34)cc2)nc1O` , and I need its recorded pIC50.
7.89

I have this compound here, `O=C(O)c1ccc(-c2c(C#Cc3ccc(C(F)(F)F)cn3)nc3c(N4CCOCC4)ccnn23)cc1` , and I need its recorded pIC50.
7.70

I have this compound here, `OC(c1ccc(-c2c(CCc3ccc4ccccc4n3)nc3c(N4CCOCC4)ccnn23)cc1)(C(F)(F)F)C(F)(F)F` , and I need its recorded pIC50.
7.48

I have this compound here, O=c1ncn(-c2ccc(-c3c(CCc4ccc5ccccc5n4)nc4c(N5CCOCC5)ccnn34)cc2)[nH]1 [Cpd 59, trifluoroacetic acid salt] , and I need its recorded pIC50.
8.22

I have this compound here, `O=C(O)c1cccc(-c2c(/C=C/c3ccc4ccccc4n3)nc3c(N4CCOCC4)ccnn23)c1` , and I need its recorded pIC50.
8.05

I have this compound here, c1ccc2nc(SCc3nc4c(N5CCOCC5)ccnn4c3-c3ccc(-c4nnn[nH]4)nc3)ccc2c1 [Cpd 32, trifluoroacetic acid salt] , and I need its recorded pIC50.
9.00
